Cited source for all entries: the supplement of paper PMC10515830

System: Danio rerio larvae (5 dpf)
Assay: difference in activity during first hour vs DMSO (percentage points); higher = more activity than DMSO
Conditions: 10 µM; exposure time 6 h
Structures can show the parent of a compound that is named as a salt.
We'd kindly ask you to apply these difference in activity during first hour classes: Low = under -3, Medium = from -3 up to 6, High = 6 and over

Here's what some known entries look like.
COMPOUND: CC(=O)Oc1cc2c(s1)CCN(C(C(=O)C1CC1)c1ccccc1F)C2 (centres undefined)
GROUP_LABEL: Medium
//
COMPOUND: Nc1cccc2c1C(=O)N(C1CCC(=O)NC1=O)C2=O (centres undefined) [Pomalidomide]
GROUP_LABEL: Medium
//
COMPOUND: CCCCNc1cc(C(=O)O)cc(S(N)(=O)=O)c1Oc1ccccc1 [Bumetanide]
GROUP_LABEL: Medium
//
COMPOUND: NCCS [Cysteamine (hydrochloride)]
GROUP_LABEL: Medium
//
COMPOUND: Nc1ccn([C@@H]2O[C@H](CO)[C@@H](O)C2(F)F)c(=O)n1
GROUP_LABEL: Medium
//
COMPOUND: CC(=O)NC[C@H]1CN(c2ccc(N3CCOCC3)c(F)c2)C(=O)O1
GROUP_LABEL: Medium
//
COMPOUND: CC(C[N+](C)(C)C)OC(N)=O (centres undefined) [Bethanechol (chloride)]
GROUP_LABEL: Low
//
COMPOUND: Cc1[nH]cnc1CN1CCc2c(c3ccccc3n2C)C1=O [Alosetron (hydrochloride)]
GROUP_LABEL: High
//
COMPOUND: Cc1cnc(NC(=O)C2=C(O)c3ccccc3S(=O)(=O)N2C)s1
GROUP_LABEL: Low
//
COMPOUND: C[C@]12CC[C@@H]3c4ccc(OS(=O)(=O)O)cc4CC[C@H]3[C@@H]1CCC2=O [Estropipate]
GROUP_LABEL: Low

Problem: Class for CCCN(CCC)S(=O)(=O)c1ccc(C(=O)O)cc1 ?
Solution: High

Problem: Form: Item = CCN1CCN(C(=O)N[C@@H](C(=O)N[C@@H]2C(=O)N3[C@@H]2SC(C)(C)[C@@H]3C(=O)O)c2ccccc2)C(=O)C1=O [Piperacillin (sodium salt)] ; Class = ?
Solution: High

Problem: State the band of NC[C@@H](O)c1ccc(O)c(O)c1 [L-(-)-Norepinephrine (bitartrate hydrate)]
Solution: High

Problem: Where would OB1OCc2cc(F)ccc21 land among the classes by reported difference in activity during first hour?
Solution: Low

Problem: Using the reported difference in activity during first hour, which band applies to Nc1ccc(S(N)(=O)=O)cc1 [Sulfanilamide] ?
Solution: High

Problem: Hi there! Could you help me figure out the category for CC(C)(S)[C@@H](N)C(=O)O please?
Solution: Low

Problem: Record CCC1(C)CC(=O)NC1=O (centres undefined) [Ethosuximide] — which class?
Solution: Low

Problem: # classify by difference in activity during first hour band: CCN(CC)C(=O)/C(C#N)=C/c1cc(O)c(O)c([N+](=O)[O-])c1
Solution: Medium

Problem: Please indicate the class for COc1c(N2C[C@@H]3CCCN[C@@H]3C2)c(F)cc2c(=O)c(C(=O)O)cn(C3CC3)c12 [Moxifloxacin (hydrochloride)] based on its difference in activity during first hour.
Solution: Medium

Problem: Which difference in activity during first hour category applies to O=C(c1cc(Cc2n[nH]c(=O)c3ccccc23)ccc1F)N1CCN(C(=O)C2CC2)CC1 here?
Solution: Medium

Problem: Class label required: Nc1nc(Cl)nc2c1ncn2[C@H]1C[C@H](O)[C@@H](CO)O1
Solution: Low
